experiment: NOVARTIS: Inhibition Frequency Index (IFI) - the number of HTS assays where a compound showed > 50% inhibition/induction, expressed as a percentage of the number of assays in which the compound was tested.; type: functional
Whole data set: some 5,400 compounds, median “IFI” near 2, cut for the highest 2% near 22. What follows is part of a selection rich in the highest values, with near analogues and random picks from the rest.
Quick rule for you: IFI at 2% or higher means 1.0, lower means 0.0.

Request: Decide: is the reported value of IFI for Cc1nc([P+](c2ccccc2)(c2ccccc2)c2ccccc2)c(N2CCCCC2)o1 equal to or greater than 2%?
Response: 1.0

Request: Next compound: CCN1/C(=C/c2cccc[n+]2C)C=Cc2ccc(C)cc21
Response: 1.0

Request: Next compound: CC[n+]1c(C=CN(C)c2ccccc2)sc2ccc(Cl)cc21
Response: 1.0

Request: Next compound: COc1cccc(N2C(=O)/C(=C/c3cccnc3)SC2=S)c1
Response: 0.0

Request: Next compound: CN1C=CC(=Cc2sc3ccccc3[n+]2C)C=C1
Response: 0.0

Request: Next compound: CN(C)c1oc(-c2ccc(Cl)cc2Cl)nc1[P+](c1ccccc1)(c1ccccc1)c1ccccc1
Response: 1.0

Request: Next compound: Cc1cc(S(=O)(=O)NC(Cc2ccc([N+](=O)[O-])cc2)C(=O)O)c(Cl)cc1Cl (stereo not given)
Response: 0.0

Request: Next compound: Nc1nc(N)c2c(OCc3ccc(C(F)(F)F)cc3)cccc2n1
Response: 1.0

Request: Next compound: CCc1ccc(C=NNC(=O)COc2ccc3c(c2)OCO3)cc1
Response: 0.0

Request: Next compound: CCN1C(=Cc2sc3ccc(O)cc3[n+]2CC)C=Cc2cc(C)ccc21
Response: 1.0

Request: Next compound: Clc1ccccc1-c1nc([P+](c2ccccc2)(c2ccccc2)c2ccccc2)c(N2CCOCC2)o1
Response: 1.0

Request: Next compound: COC(=O)c1sc(-c2ccccc2)cc1NC(=O)c1ccc(S(=O)(=O)N2CCCCCC2)cc1
Response: 0.0

Request: Next compound: CCN1C=C(c2ccc(C)cc2)S/C1=C\c1sc2ccccc2[n+]1C
Response: 1.0

Request: Next compound: OC1=C2C(=Nc3ccccc3SC2c2ccccc2)c2ccccc21 (stereo not given)
Response: 1.0

Request: Next compound: CC(=O)Nc1c(NCc2ccccc2)c2ccccc2sc1=O
Response: 1.0

Request: Next compound: CCCCCc1ccc(OCCOCC[n+]2ccccc2)c(CCCCC)c1
Response: 1.0

Request: Next compound: CCCCCCC1CCC(O)(C(C)(O)C(=O)NC2C(=O)N3NCCCC3C(=O)N(O)C(COC)C(=O)NCC(=O)N3NCCCC3C(=O)N(O)C(C)C(=O)OC2C)OC1C (stereo not given)
Response: 1.0

Request: Next compound: CC(=O)Nc1cc(C(=O)Nc2ccc(C3=NCCN3)cc2)ccc1C(=O)Nc1ccc(C2=NCCN2)cc1
Response: 0.0

Request: Next compound: CC[C@H](C)C[C@H]1CC[C@](O)([C@](C)(O)C(=O)N[C@@H]2C(=O)N3NCCC[C@@H]3C(=O)N(O)[C@@H](C)C(=O)NCC(=O)N3NCCC[C@H]3C(=O)N(O)[C@H](C)C(=O)O[C@H]2C(C)C)O[C@@H]1C
Response: 1.0

Request: Next compound: CCN1C(=Cc2sc3ccccc3[n+]2C)C=Cc2ccc(C)cc21
Response: 1.0

* * *

Please go through the items and note down their IFI.
assay: NOVARTIS: Inhibition Frequency Index (IFI) - the number of HTS assays where a compound showed > 50% inhibition/induction, expressed as a percentage of the number of assays in which the compound was tested.; format: functional
Over roughly 5,400 compounds, “IFI” has its median near 2; the highest 2% begin near 22. Only a selection was taken, and the highest values are over-represented in it overall.
Give the value, in units of %, as a plain number.

Request: Recorded IFI of Cc1ccc(CSCc2ccc(C(=O)NC3CC3)o2)cc1 , please.
Response: 0

Request: Next compound: Cc1c(C(=O)NCCN2CCCC2)cnn1-c1ncc2c(n1)-c1ccccc1SC2
Response: 2.59

Request: Next compound: CC[n+]1c(/C=C2\Sc3cc(C)ccc3N2CCO)ccc2ccccc21
Response: 15.4

Request: Next compound: CC[n+]1c(/C=C2\Sc3ccc(OC)cc3N2C)ccc2cc(C)ccc21
Response: 14.3

Request: Next compound: CN(C)c1ccc(C(=C2C=CC(=[N+](C)C)C=C2)c2ccc(N(C)C)cc2)cc1
Response: 25.7

Request: Next compound: O=C1C(Sc2nnc[nH]2)=CC(=NS(=O)(=O)c2cccs2)c2ccccc21
Response: 25

Request: Next compound: Cc1ccc(S(=O)(=O)N=C2C=C(Sc3nnc[nH]3)C(=O)c3ccccc32)cc1
Response: 25

Request: Next compound: O=C(Nc1cc(C(F)(F)F)cc(C(F)(F)F)c1)Nc1ccc2nnsc2c1
Response: 12.8

Request: Next compound: CCN1/C(=C/c2ccc3ccccc3[n+]2CC)C=Cc2ccccc21
Response: 22.7

Request: Next compound: CN(C)c1cc[n+](CC(=O)c2ccc(Cl)cc2)cc1
Response: 0

* * *

test: NOVARTIS: Inhibition Frequency Index (IFI) - the number of HTS assays where a compound showed > 50% inhibition/induction, expressed as a percentage of the number of assays in which the compound was tested.; format: functional
Over roughly 5,400 compounds, “IFI” has its median near 2; the highest 2% begin near 22. The sample holds the highest values, similar compounds and a random draw of the others, so the mix is not that of the screen.
Please go through the items and note down their IFI.
Give the value, in units of %, as a plain number.

Request: Recorded IFI of O=C(N/C(=C/C=C/c1ccccc1)C(=O)N1CCCCC1)c1ccc([N+](=O)[O-])cc1 , please.
Response: 0.685

Request: Next compound: CC[n+]1c(/C=C/c2ccc(Cl)cc2)ccc2ccccc21
Response: 4.84

Request: Next compound: COc1ccc(CCNc2nc(NCCCn3ccnc3)ncc2C(=O)NCC(C)C)cc1OC
Response: 1.92

Request: Next compound: N=c1c2ccccc2nnn1-c1ccc(C(F)(F)F)cc1
Response: 2.53

Request: Next compound: COc1cc(C(=O)NCCc2ccccn2)ccc1OC1CCN(CC(c2ccccc2)c2ccccc2)CC1
Response: 1.37

Request: Next compound: CC1=C(C(=O)Nc2ccccn2)C(c2ccc(O)cc2)n2ncnc2N1 (stereo not given)
Response: 0

Request: Next compound: O=C(c1cccc([N+](=O)[O-])c1)c1ccc(Cl)c(Cl)c1
Response: 0

Request: Next compound: COc1ccc(/C=C(/C#N)C(=O)Nc2cccc3ccccc23)cc1
Response: 0

Request: Next compound: COc1ccc(C[C@H](N)C(=O)N[C@H]2[C@@H](O)[C@H](n3cnc4c(N(C)C)ncnc43)O[C@@H]2CO)cc1
Response: 30.8

Request: Next compound: Cc1oc2c(c1C(=O)NCc1cccnc1)C(=O)c1ccccc1C2=O
Response: 17.5

Request: Next compound: CCN1/C(=C/c2sc3cc(OC)c(OC)cc3[n+]2CC)C=Cc2ccccc21
Response: 23.1

Request: Next compound: COc1cc(NC(C)CCCN(Cc2ccc(OC)c(OC)c2)C(=O)CC(C)CC(C)(C)C)c2ncccc2c1 (stereo not given)
Response: 3.64

Request: Next compound: COc1ccc([N+](=O)[O-])cc1NC(=O)C(C)Nc1ccc(N(C)C)cc1 (stereo not given)
Response: 6.25

Request: Next compound: Oc1ccc(C=NN=C(Nc2ccccn2)c2ccccn2)c(O)c1
Response: 23.1

Request: Next compound: Cc1ccc(S(=O)(=O)NC(Cc2ccccc2)C(=O)N2CCC(C3CCN(C(=O)c4ccc([N+](=O)[O-])o4)CC3)CC2)cc1 (stereo not given)
Response: 7.69

Request: Next compound: CC[n+]1c(C=C2C=CN(c3ccc(Cl)cc3)C=C2)ccc2ccccc21
Response: 15.4

Request: Next compound: Nc1c(C(=O)NCc2ccccc2)nnn1Cc1ccc(F)cc1Cl
Response: 0

Request: Next compound: COc1ccc(NC(=O)C2c3ccccc3C(=O)N(C3CCCC3)C2c2cccs2)cc1Cl (stereo not given)
Response: 6.25

Request: Next compound: Cc1ccc(CNC(=O)C2CNCC2c2ccc(C(F)(F)F)cc2)cc1 (stereo not given)
Response: 2.82

Request: Next compound: Cc1oc2c(c1C(=O)NC1CCS(=O)(=O)C1)C(=O)c1ccccc1C2=O (stereo not given)
Response: 29.7

* * *

assay: NOVARTIS: Inhibition Frequency Index (IFI) - the number of HTS assays where a compound showed > 50% inhibition/induction, expressed as a percentage of the number of assays in which the compound was tested.; type: functional
Over roughly 5,400 compounds, “IFI” has its median near 2; the highest 2% begin near 22. What follows is part of a selection rich in the highest values, with near analogues and random picks from the rest.
Bucketed by reported IFI, buckets being bin 1 = under 3%, bin 2 = from 3% up to 20%, bin 3 = 20% and over

Request: Exercise: read the entry CCOC(=O)c1cc(S(=O)(=O)NCc2ccc(F)cc2)n[nH]1 and state which class it falls under.
Response: bin 1

Request: Next compound: O=C(c1ccc2nc(N3CCCCC3)sc2c1)N1CCN(Cc2ccc3c(c2)OCO3)CC1
Response: bin 1

Request: Next compound: Brc1ccc(C=Nc2ccc(-c3nc4cc(-c5ccc6[nH]c(-c7ccc(N=Cc8ccc(Br)cc8)cc7)nc6c5)ccc4[nH]3)cc2)cc1
Response: bin 3

Request: Next compound: COc1ccccc1NC1=CC(=NS(=O)(=O)c2cccs2)c2ccccc2C1=O
Response: bin 2

Request: Next compound: O=C1C(Nc2ccc(O)cc2)=CC(=NS(=O)(=O)c2cccs2)c2ccccc21
Response: bin 3

Request: Next compound: Cc1cccc(C)c1NC(=O)N1CCN(C(=O)c2nc(-c3ccccc3)nc(C)c2C(=O)OC(C)C)CC1C (configuration not stated)
Response: bin 1

Request: Next compound: Nc1ccc(-c2nc3cc(-c4ccc5[nH]c(-c6ccc(N)cc6)nc5c4)ccc3[nH]2)cc1
Response: bin 3

Request: Next compound: COc1cccc2cc(-c3nc(-c4ccccc4)cs3)c(=O)oc12
Response: bin 2

Request: Next compound: O=C1N(c2ccccc2)C[C@@H]2C[C@@H](c3ccc4nonc4c3)N3CCC[C@@]123
Response: bin 2

Request: Next compound: COc1ccc(-c2nc(NC(=O)CS(=O)(=O)c3ccccc3)sc2C)cc1
Response: bin 1

Request: Next compound: CC(=O)Nc1ccc(NC2=CC(=NS(=O)(=O)c3ccccc3)c3ccccc3C2=O)cc1
Response: bin 2

Request: Next compound: OCCCNc1cc(-c2ccnc(Nc3cccc(Cl)c3)n2)ccn1
Response: bin 3

Request: Next compound: c1ccc(CSc2nc3ccncc3[nH]2)cc1
Response: bin 1

Request: Next compound: COc1ccc(C(=O)Nc2ccc(-c3nc4ccc(NC(=O)c5ccc(OC)cc5)cc4[nH]3)cc2)cc1
Response: bin 2

Request: Next compound: COc1ccc2c(c1)C(C)=CC(C)(C)N2C(=O)CSc1nnc(-c2ccc(C)cc2)o1
Response: bin 1

Request: Next compound: COc1ccccc1NC1=CC(=NS(=O)(=O)c2ccccc2)c2ccccc2C1=O
Response: bin 3

Request: Next compound: c1ccc(CSc2scnc2[P+](c2ccccc2)(c2ccccc2)c2ccccc2)cc1
Response: bin 3

Request: Next compound: Cc1nc([P+](c2ccccc2)(c2ccccc2)c2ccccc2)c(SCc2ccccc2)o1
Response: bin 3

Request: Next compound: O=C(Nc1ccc2oc(-c3cccc4ccccc34)nc2c1)c1ccc([N+](=O)[O-])o1
Response: bin 2

Request: Next compound: O=C1c2ccccc2-[n+]2ccc3c([nH]c4ccccc43)c21
Response: bin 3

Request: Next compound: CC(C(=O)NCCCN)N(Cc1ccccc1)S(C)(=O)=O (configuration not stated)
Response: bin 2

Request: Next compound: COc1ccc2c(c1)C(C)(CC#N)C(=O)N2C (configuration not stated)
Response: bin 1

Request: Next compound: O=c1c2ccccc2[nH]c2ccc(F)cc12
Response: bin 1

Request: Next compound: OCCCNc1cc(-c2ccccn2)nc(-c2ccccn2)n1
Response: bin 2

Request: Next compound: CCCOC(=O)C1=C(C)NC2=C(C(=O)CC(c3ccc(Cl)cc3)C2)C1c1ccc(Br)cc1 (configuration not stated)
Response: bin 2

Request: Next compound: Nc1nc(Nc2cccc(Cl)c2)n[nH]1
Response: bin 1
